- assay.system: Recombinant human MASP2 enzyme (fragment corresponding to amino acids 297-686, C-terminal His Tag) (human, UniProt O00187 297-686)
- Sequence (O00187 other isoform, or with tags, fused parts or gaps limits assumed): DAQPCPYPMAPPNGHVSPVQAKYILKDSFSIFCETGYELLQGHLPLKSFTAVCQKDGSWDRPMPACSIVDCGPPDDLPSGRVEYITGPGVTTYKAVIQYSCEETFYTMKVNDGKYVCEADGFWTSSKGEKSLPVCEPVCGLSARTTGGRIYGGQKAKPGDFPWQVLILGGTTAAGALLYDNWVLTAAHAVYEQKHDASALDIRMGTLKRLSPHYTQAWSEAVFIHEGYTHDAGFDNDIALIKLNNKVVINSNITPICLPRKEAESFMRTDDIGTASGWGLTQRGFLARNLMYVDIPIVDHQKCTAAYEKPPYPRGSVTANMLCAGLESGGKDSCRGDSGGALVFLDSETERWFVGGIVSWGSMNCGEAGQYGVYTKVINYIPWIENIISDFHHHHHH
- protocol.summary: cell-based or functional assay
Bridge positions count the residues as written; N and C are the ends. Square brackets hold non-standard residues; d marks the D form. Ends that are not written are not given here. Gly(cPent) = N[C@H](C(=O)O)C1CCCC1; NMeA = CN[C@@H](C)C(=O)O
Kindly state human MASP2 IC50 for each of the entries shown.
One number for each entry, in nM.

[NMeA]ICSRSLPPICIPD-NH2 (disulfide 3-11; N-terminus assumed; SMILES CC[C@H](C)[C@H](NC(=O)[C@H](C)NC)C(=O)N[C@H]1CSSC[C@@H](C(=O)N[C@H](C(=O)N2CCC[C@H]2C(=O)N[C@@H](CC(=O)O)C(N)=O)[C@@H](C)CC)NC(=O)[C@H]([C@@H](C)CC)NC(=O)[C@@H]2CCCN2C(=O)[C@@H]2CCCN2C(=O)[C@H](CC(C)C)NC(=O)[C@H](CO)NC(=O)[C@H](CCCNC(=N)N)NC(=O)[C@H](CO)NC1=O) [((N-Me)A)-IC+SRSLPPIC+IPD-NH2] ... 500

In plain terms, AICSRSLPP[Gly(cPent)]CIPD-NH2 (disulfide 3-11; N-terminus assumed; SMILES CC[C@H](C)[C@H](NC(=O)[C@H](C)N)C(=O)N[C@H]1CSSC[C@@H](C(=O)N[C@H](C(=O)N2CCC[C@H]2C(=O)N[C@@H](CC(=O)O)C(N)=O)[C@@H](C)CC)NC(=O)[C@H](C2CCCC2)NC(=O)[C@@H]2CCCN2C(=O)[C@@H]2CCCN2C(=O)[C@H](CC(C)C)NC(=O)[C@H](CO)NC(=O)[C@H](CCCNC(=N)N)NC(=O)[C@H](CO)NC1=O) [AIC+SRSLPP-(Cpg)-C+IPD-NH2] has a documented human MASP2 IC50 of 170
